# Test system: HT29 colon
# MEASUREMENT NOTES: NCI tumour cell line growth inhibition, 48 h
METRIC: TGI

[
  {
    "COMPOUND": "CCCN1C(=O)NC(=O)C(CC)(N2C(=O)c3c(F)c(F)c(F)c(F)c3C2=O)C1=O (stereo not given)",
    "REPORTED VALUE": "3.62 µM"
  },
  {
    "COMPOUND": "CC(C)(C)c1ccc(OCCOc2ccc(C(C)(C)C)cc2N)c(N)c1",
    "REPORTED VALUE": "> 100 µM"
  },
  {
    "COMPOUND": "Cc1cc([NH-])c([NH-])cc1C.[Cl][Pt+2][Cl]",
    "REPORTED VALUE": "40 µM"
  },
  {
    "COMPOUND": "COc1ccc2c(c1)C(=O)/C(=C/c1cccc(OCC(=O)c3ccccc3)c1)CC2",
    "REPORTED VALUE": "> 100 µM"
  },
  {
    "COMPOUND": "O=C1C[C@H]2CCCN2[C@@H](c2ccccc2)C1",
    "REPORTED VALUE": "> 100 µM"
  },
  {
    "COMPOUND": "COc1ccc2c(c1)C(=O)CC1c3cnccc3C(=O)N21 (stereo not given)",
    "REPORTED VALUE": "> 100 µM"
  },
  {
    "COMPOUND": "CCc1c2c(nc3ccc(OCc4ccc(B(O)O)cc4)cc13)-c1cc3c(c(=O)n1C2)COC(=O)[C@]3(O)CC",
    "REPORTED VALUE": "> 37.7 µM"
  },
  {
    "COMPOUND": "Clc1ccc(-c2cn3ccnc3c(-c3ccc(Cl)cc3)n2)cc1",
    "REPORTED VALUE": "> 100 µM"
  },
  {
    "COMPOUND": "C/C(=N/O)c1cccc(Nc2cc(-n3nnc4ccccc43)nc3ccccc23)c1",
    "REPORTED VALUE": "> 100 µM"
  },
  {
    "COMPOUND": "Cc1ccc(C(=N)c2ccccc2Cc2cccc3ccccc23)c2ccccc12",
    "REPORTED VALUE": "> 100 µM"
  }
]
